Could you please report measured binding signal for the items listed next?
Molecular target: GST-Co-NF-kB (Capsaspora owczarzaki, UniProt F1ARL5 200-546)
Sequence: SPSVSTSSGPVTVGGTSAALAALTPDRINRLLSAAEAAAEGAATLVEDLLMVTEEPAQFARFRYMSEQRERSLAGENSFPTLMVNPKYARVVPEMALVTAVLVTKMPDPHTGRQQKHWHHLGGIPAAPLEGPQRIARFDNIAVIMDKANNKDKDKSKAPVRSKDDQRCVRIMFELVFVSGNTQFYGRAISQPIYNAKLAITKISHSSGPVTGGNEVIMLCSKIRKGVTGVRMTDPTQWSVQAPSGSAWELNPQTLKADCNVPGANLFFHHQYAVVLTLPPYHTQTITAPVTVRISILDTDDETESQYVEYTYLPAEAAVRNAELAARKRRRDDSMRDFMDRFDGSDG
Assay: protein-binding microarray (PBM); PBM: ~300 nM protein, 6 mM HEPES pH 7.8, 80 mM KCl, 0.5 mM EDTA, 0.5 mM EGTA, 6% glycerol, 35 ng/ul poly-dIdC, 1% milk, 1 h, room temperature; high values mean tight binding
Settings: dsDNA, one strand shown
One number for each entry, in z-score.

These solved cases illustrate the format of a correct answer.
>>> numeric_value("CCGATTAACATCAGAACATTCCCTGATGTTAATCGGGTCTTGATTCGCTTGACGCTGCTG")
2.6
>>> numeric_value("CCGATTAACATCAGGGGGGGAACTGATGTTAATCGGGTCTTGATTCGCTTGACGCTGCTG")
8.33
>>> numeric_value("CCGATTAACATCAGGGGTTTCCATGATGTTAATCGGGTCTTGATTCGCTTGACGCTGCTG")
1.21
>>> numeric_value("CCGATTAACATCAGGGGAAGAAATGATGTTAATCGGGTCTTGATTCGCTTGACGCTGCTG")
8.71
>>> numeric_value("CCGATTAACATCACGGGAAATCCTGATGTTAATCGGGTCTTGATTCGCTTGACGCTGCTG")
4.57

Need binding signal for each of these sequences.
1. CCGATTAACATCAGGGGGATTTATGATGTTAATCGGGTCTTGATTCGCTTGACGCTGCTG
2. CCGATTAACATCACGGGGTTCCCTGATGTTAATCGGGTCTTGATTCGCTTGACGCTGCTG
3. CCGATTAACATCAGATATTACCCTGATGTTAATCGGGTCTTGATTCGCTTGACGCTGCTG
4. CCGATTAACATCAGGGGAGGTACTGATGTTAATCGGGTCTTGATTCGCTTGACGCTGCTG

a:
[6.7, 2.51, 2.75, 3.96]

* * *

Molecular target: GST-Nv-NF-kB (Cys allele) (Nematostella vectensis, UniProt E5G601 2-411)
Sequence: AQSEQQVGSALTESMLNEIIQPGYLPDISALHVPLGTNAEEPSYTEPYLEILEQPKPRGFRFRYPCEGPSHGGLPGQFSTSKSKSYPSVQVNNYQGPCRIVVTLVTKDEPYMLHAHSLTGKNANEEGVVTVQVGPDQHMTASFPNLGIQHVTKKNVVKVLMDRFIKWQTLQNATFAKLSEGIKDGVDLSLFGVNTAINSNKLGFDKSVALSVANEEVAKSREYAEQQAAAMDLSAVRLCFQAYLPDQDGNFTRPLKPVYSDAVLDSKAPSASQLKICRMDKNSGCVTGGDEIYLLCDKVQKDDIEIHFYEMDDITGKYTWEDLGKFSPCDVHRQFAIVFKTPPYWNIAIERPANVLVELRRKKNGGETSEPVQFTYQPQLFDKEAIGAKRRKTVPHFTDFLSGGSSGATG
Assay: protein-binding microarray (PBM); PBM: ~300 nM protein, 6 mM HEPES pH 7.8, 80 mM KCl, 0.5 mM EDTA, 0.5 mM EGTA, 6% glycerol, 35 ng/ul poly-dIdC, 1% milk, 1 h, room temperature; high values mean tight binding
Conditions: dsDNA, one strand shown
// assign MET if binding signal falls strictly below 4 z-score, else NOT MET (ties count as NOT MET)

Look over these answered cases.
>>> cat("CCGATTAACATCAGGGGGCAATATGATGTTAATCGGGTCTTGATTCGCTTGACGCTGCTG")
"MET"
>>> cat("CCGATTAACATCAGGGAAACAAATGATGTTAATCGGGTCTTGATTCGCTTGACGCTGCTG")
"MET"
>>> cat("CCGATTAACATCAGGAGCTTCCCTGATGTTAATCGGGTCTTGATTCGCTTGACGCTGCTG")
"MET"
>>> cat("CCGATTAACATCAGGGGACTACCTGATGTTAATCGGGTCTTGATTCGCTTGACGCTGCTG")
"NOT MET"
>>> cat("CCGATTAACATCAAGATTCCCCCTGATGTTAATCGGGTCTTGATTCGCTTGACGCTGCTG")
"NOT MET"

q: Problem: For the sequence CCGATTAACATCAAGGTTTCCCCTGATGTTAATCGGGTCTTGATTCGCTTGACGCTGCTG , is binding signal under 4 z-score?
a: NOT MET

q: Problem: For the sequence CCGATTAACATCACGGGTTTCCCTGATGTTAATCGGGTCTTGATTCGCTTGACGCTGCTG , is binding signal under 4 z-score?
a: NOT MET

q: Problem: For the sequence CCGATTAACATCAGGGGAACGGATGATGTTAATCGGGTCTTGATTCGCTTGACGCTGCTG , is binding signal under 4 z-score?
a: NOT MET

* * *

Molecular target: GST-Dm-Relish (Drosophila melanogaster, UniProt Q94527 99-473)
Sequence: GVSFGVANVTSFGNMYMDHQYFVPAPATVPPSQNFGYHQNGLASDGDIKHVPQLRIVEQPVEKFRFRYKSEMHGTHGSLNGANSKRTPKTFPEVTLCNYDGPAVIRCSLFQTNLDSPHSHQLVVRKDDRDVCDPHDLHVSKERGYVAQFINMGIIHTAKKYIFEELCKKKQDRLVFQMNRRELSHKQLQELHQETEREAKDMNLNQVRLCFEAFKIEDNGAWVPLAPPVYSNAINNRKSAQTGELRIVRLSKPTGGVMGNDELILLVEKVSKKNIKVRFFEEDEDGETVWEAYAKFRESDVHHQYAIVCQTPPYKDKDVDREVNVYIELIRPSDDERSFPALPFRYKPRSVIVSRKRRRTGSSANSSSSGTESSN
Assay: protein-binding microarray (PBM); PBM: ~300 nM protein, 6 mM HEPES pH 7.8, 80 mM KCl, 0.5 mM EDTA, 0.5 mM EGTA, 6% glycerol, 35 ng/ul poly-dIdC, 1% milk, 1 h, room temperature; high values mean tight binding
Conditions: dsDNA, one strand shown
RECORDED METRIC: binding signal
Please append the unit to your numeric answer.

These solved cases illustrate the format of a correct answer.
>>> result("CCGATTAACATCAGGCCGTCCCCTGATGTTAATCGGGTCTTGATTCGCTTGACGCTGCTG")
"5.02 z-score"
>>> result("CCGATTAACATCAGGGGGACACCTGATGTTAATCGGGTCTTGATTCGCTTGACGCTGCTG")
"4.25 z-score"
>>> result("CCGATTAACATCAGGGTAAGTACTGATGTTAATCGGGTCTTGATTCGCTTGACGCTGCTG")
"7.08 z-score"
>>> result("CCGATTAACATCAGGACTGTCCCTGATGTTAATCGGGTCTTGATTCGCTTGACGCTGCTG")
"3.04 z-score"
>>> result("CCGATTAACATCAAACTCTCCCCTGATGTTAATCGGGTCTTGATTCGCTTGACGCTGCTG")
"1.21 z-score"

Need binding signal for each of these sequences.
1. CCGATTAACATCAAGGGGGTACTTGATGTTAATCGGGTCTTGATTCGCTTGACGCTGCTG
2. CCGATTAACATCAAAATACTCCCTGATGTTAATCGGGTCTTGATTCGCTTGACGCTGCTG
3. CCGATTAACATCAAATCATCCCCTGATGTTAATCGGGTCTTGATTCGCTTGACGCTGCTG
4. CCGATTAACATCAAGTACATTCCTGATGTTAATCGGGTCTTGATTCGCTTGACGCTGCTG

a:
["2.88 z-score", "1.83 z-score", "4.06 z-score", "2.21 z-score"]

* * *

Target: GST-Co-NF-kB (Capsaspora owczarzaki, UniProt F1ARL5 200-546)
Sequence: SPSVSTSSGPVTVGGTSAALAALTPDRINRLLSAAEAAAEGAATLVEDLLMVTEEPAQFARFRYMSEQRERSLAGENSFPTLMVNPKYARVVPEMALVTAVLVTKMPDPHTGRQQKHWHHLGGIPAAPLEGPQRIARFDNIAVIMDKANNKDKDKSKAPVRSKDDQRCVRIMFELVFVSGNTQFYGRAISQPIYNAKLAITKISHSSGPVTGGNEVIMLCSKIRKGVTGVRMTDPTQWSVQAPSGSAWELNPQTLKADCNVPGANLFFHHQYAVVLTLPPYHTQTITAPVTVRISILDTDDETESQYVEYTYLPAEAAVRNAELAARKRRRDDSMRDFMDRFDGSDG
Assay: protein-binding microarray (PBM); PBM: ~300 nM protein, 6 mM HEPES pH 7.8, 80 mM KCl, 0.5 mM EDTA, 0.5 mM EGTA, 6% glycerol, 35 ng/ul poly-dIdC, 1% milk, 1 h, room temperature; Ap Aiptasia and Nv Nematostella (sea anemones) / Co Capsaspora / Aq Amphimedon (sponge) / Dm Drosophila / Hu human; RHD is the Rel homology domain; high values mean tight binding
Conditions: dsDNA, one strand shown
// assign Criterion met if binding signal falls strictly below 7 z-score, else Criterion not met (ties count as Criterion not met)

Look over these answered cases.
>>> cat("CCGATTAACATCAAATCTTCCCCTGATGTTAATCGGGTCTTGATTCGCTTGACGCTGCTG")
"Criterion not met"
>>> cat("CCGATTAACATCATGGGGTGTGCTGATGTTAATCGGGTCTTGATTCGCTTGACGCTGCTG")
"Criterion met"
>>> cat("CCGATTAACATCAGGGGGTAATATGATGTTAATCGGGTCTTGATTCGCTTGACGCTGCTG")
"Criterion met"
>>> cat("CCGATTAACATCAGGAGTGTCCCTGATGTTAATCGGGTCTTGATTCGCTTGACGCTGCTG")
"Criterion met"
>>> cat("CCGATTAACATCAACTTTTCCCCTGATGTTAATCGGGTCTTGATTCGCTTGACGCTGCTG")
"Criterion not met"
>>> cat("CCGATTAACATCAGGGGAACACCTGATGTTAATCGGGTCTTGATTCGCTTGACGCTGCTG")
"Criterion met"

Please look at the following sequence next.
q: Problem: For the sequence CCGATTAACATCAGGGGGATAAATGATGTTAATCGGGTCTTGATTCGCTTGACGCTGCTG , is binding signal under 7 z-score?
a: Criterion not met
